Entry source: patent US20100267561A1

Test system: kochia (Kochia scoparia)
Assay: Test B pre-/postemergence plant response
Assay type: in vivo
Conditions: Preemergence, 62 g ai/ha; scale 0 to 100

[
  {
    "molecule": "Cc1nn(C)c(=O)c(-n2nc(-c3ccc(Cl)cc3)cc2C)c1O [Compound 15]",
    "Plant response rating, Kochia": 0
  },
  {
    "molecule": "Cc1cc(-c2ccc(Br)cc2)nn1-c1c(OC(=O)C2CC2)cnn(C)c1=O [Compound 5]",
    "Plant response rating, Kochia": 50
  },
  {
    "molecule": "CCc1cc(-c2ccc(Cl)cc2)nn1-c1c(O)cnn(C)c1=O [Compound 21]",
    "Plant response rating, Kochia": 0
  },
  {
    "molecule": "CCCc1cc(-c2ccc(Cl)cc2)nn1-c1c(O)cnn(C)c1=O [Compound 43]",
    "Plant response rating, Kochia": 0
  }
]

====

Test system: pigweed (Amaranthus retroflexus)
Assay: Test B pre-/postemergence plant response
Assay type: in vivo
Details: Postemergence, 16 g ai/ha; scale 0 to 100

[
  {
    "smiles.repr": "Cc1cc(-c2ccc(Cl)cc2)nn1-c1c(OC(=O)c2cccc(Cl)c2)cnn(C)c1=O",
    "tested.system": "pigweed (Amaranthus retroflexus)",
    "Plant response rating, Pigweed": 0
  },
  {
    "smiles.repr": "Cc1cc(-c2ccc(Cl)cc2)nn1-c1c(OC(=O)Oc2ccccc2)cnn(C)c1=O",
    "tested.system": "pigweed (Amaranthus retroflexus)",
    "Plant response rating, Pigweed": 0
  },
  {
    "smiles.repr": "Cc1cc(-c2ccc(Cl)cc2)nn1-c1c(OC(=O)CC(C)C)cnn(C)c1=O",
    "tested.system": "pigweed (Amaranthus retroflexus)",
    "Plant response rating, Pigweed": 0
  },
  {
    "smiles.repr": "CCc1cc(-c2ccc(C(F)(F)F)cc2)nn1-c1c(OC(=O)OC(C)C)cnn(C)c1=O",
    "tested.system": "pigweed (Amaranthus retroflexus)",
    "Plant response rating, Pigweed": 0
  }
]

====

System: large crabgrass (Digitaria sanguinalis)
Assay: Test B pre-/postemergence plant response
Assay type: in vivo
Conditions: Preemergence, 62 g ai/ha; scale 0 to 100
experimental.readout: Plant response rating, Crabgrass, Large

[
  {
    "smiles.repr": "CCc1cc(-c2ccc(Cl)cc2)nn1-c1c(O)cnn(C)c1=O",
    "measurement": 100
  },
  {
    "smiles.repr": "Cc1cc(-c2ccc(Cl)cc2)nn1-c1c(OC(=O)c2cccs2)cnn(C)c1=O",
    "measurement": 0
  },
  {
    "smiles.repr": "Cc1ccc(-c2ccc(Cl)cc2)cc1-c1c(O)cnn(C)c1=O",
    "measurement": 100
  },
  {
    "smiles.repr": "CCOC(=O)Oc1cnn(C)c(=O)c1-n1nc(-c2ccc(Cl)cc2)cc1C",
    "measurement": 0
  },
  {
    "smiles.repr": "Cc1cc(-c2ccc(C(F)(F)F)c(F)c2)nn1-c1c(O)c(C(F)(F)F)nn(C)c1=O",
    "measurement": 0
  },
  {
    "smiles.repr": "Cc1cc(-c2ccc(Cl)cc2)nn1-c1c(OC(=O)CC(C)C)cnn(C)c1=O",
    "measurement": 100
  },
  {
    "smiles.repr": "Cc1cc(-c2ccc(Br)cc2)nn1-c1c(OC(=O)C2CC2)cnn(C)c1=O",
    "measurement": 100
  },
  {
    "smiles.repr": "CCCc1cc(-c2ccc(Cl)cc2)nn1-c1c(O)cnn(C)c1=O",
    "measurement": 100
  },
  {
    "smiles.repr": "Cc1cc(-c2ccc(Cl)cc2)nn1-c1c(OC(=O)c2cccc(Cl)c2)cnn(C)c1=O",
    "measurement": 100
  }
]

====

Test system: bermudagrass (Cynodon dactylon)
Assay: Test B pre-/postemergence plant response
Type: in vivo
Settings: Postemergence, 16 g ai/ha; scale 0 to 100

[
  {
    "compound": "Cc1nn(C)c(=O)c(-n2nc(-c3ccc(Cl)cc3)cc2Cl)c1O [Compound 59]",
    "tested.system": "bermudagrass (Cynodon dactylon)",
    "Plant response rating, Bermudagrass": 0
  },
  {
    "compound": "CCc1cc(-c2ccc(C(F)(F)F)cc2)nn1-c1c(OC(=O)OC(C)C)cnn(C)c1=O [Compound 12]",
    "tested.system": "bermudagrass (Cynodon dactylon)",
    "Plant response rating, Bermudagrass": 100
  },
  {
    "compound": "CCCC(=O)Oc1cnn(C)c(=O)c1-n1nc(-c2ccc(Cl)cc2)cc1C [Compound 56]",
    "tested.system": "bermudagrass (Cynodon dactylon)",
    "Plant response rating, Bermudagrass": 70
  },
  {
    "compound": "CCCc1cc(-c2ccc(Cl)cc2)nn1-c1c(O)cnn(C)c1=O [Compound 43]",
    "tested.system": "bermudagrass (Cynodon dactylon)",
    "Plant response rating, Bermudagrass": 45
  },
  {
    "compound": "Cc1cc(-c2ccc(Cl)cc2)nn1-c1c(OS(=O)(=O)c2ccccc2)cnn(C)c1=O [Compound 35]",
    "tested.system": "bermudagrass (Cynodon dactylon)",
    "Plant response rating, Bermudagrass": 65
  },
  {
    "compound": "Cn1ncc(O)c(-n2nc(-c3ccc(Cl)cc3)cc2C2CC2)c1=O [Compound 45]",
    "tested.system": "bermudagrass (Cynodon dactylon)",
    "Plant response rating, Bermudagrass": 95
  }
]

====

System: large crabgrass (Digitaria sanguinalis)
Experiment: Test B pre-/postemergence plant response
Format: in vivo
Conditions: Preemergence, 31 g ai/ha; 0 to 100 scale, 0 no effect, 100 complete control
experimental.readout: Plant response rating, Crabgrass, Large

[
  {
    "smiles.repr": "Cc1cc(-c2ccc(C(F)(F)F)c(F)c2)nn1-c1c(O)c(C(F)(F)F)nn(C)c1=O",
    "measurement": 0
  },
  {
    "smiles.repr": "Cc1cc(-c2ccc(Cl)cc2)nn1-c1c(OS(=O)(=O)c2cccc3ccccc23)cnn(C)c1=O",
    "measurement": 100
  },
  {
    "smiles.repr": "Cc1cc(-c2ccc(Cl)cc2)nn1-c1c(OC(=O)CC(C)C)cnn(C)c1=O",
    "measurement": 100
  },
  {
    "smiles.repr": "Cc1nn(C)c(=O)c(-n2nc(-c3ccc(Cl)cc3)cc2C)c1O",
    "measurement": 85
  }
]

====

System: wheat (Triticum aestivum)
Assay: Test A pre-/postemergence plant response
Assay type: in vivo
Conditions: Postemergence, 31 g ai/ha; 0 to 100 scale, 0 no effect, 100 complete control
experimental.readout: Plant response rating, Wheat

[
  {
    "smiles.repr": "Cn1ncc(O)c(-n2nc(-c3ccc(Cl)cc3)cc2C2CC2)c1=O",
    "measurement": 70
  },
  {
    "smiles.repr": "Cc1ccc(-c2ccc(Cl)cc2)cc1-c1c(O)cnn(C)c1=O",
    "measurement": 0
  },
  {
    "smiles.repr": "CCCC(=O)Oc1cnn(C)c(=O)c1-n1nc(-c2ccc(Cl)cc2)cc1C",
    "measurement": 70
  },
  {
    "smiles.repr": "Cc1cc(-c2ccc(Cl)cc2)nn1-c1c(OS(=O)(=O)C(C)C)cnn(C)c1=O",
    "measurement": 0
  },
  {
    "smiles.repr": "CCc1cc(-c2ccc(Br)cc2)nn1-c1c(O)c(C)nn(C)c1=O",
    "measurement": 70
  },
  {
    "smiles.repr": "Cc1cc(-c2ccc(Cl)cc2)nn1-c1c(OC(=O)c2cccs2)cnn(C)c1=O",
    "measurement": 30
  },
  {
    "smiles.repr": "CCCc1cc(-c2ccc(C(F)(F)F)cc2)nn1-c1c(O)cnn(C)c1=O",
    "measurement": 60
  }
]

====

Overview of reported Plant response rating, Ragweed across a group of compounds:
Tested on: common ragweed (Ambrosia elation)
Experiment: Test B pre-/postemergence plant response
Format: in vivo
Conditions: Postemergence, 31 g ai/ha; scale 0 to 100
Text: […] Plant species in the flooded paddy test consisted of rice (Oryza sativa), umbrella sedge (Cyperus difformis), ducksalad (Heteranthera limosa) and barnyardgrass (Echinochloa crus-galli) grown to the 2-leaf stage for testing. […] Treated plants and controls were maintained in a greenhouse for 13 to 15 days, after which time all species were compared to controls and visually evaluated. […]
experimental.readout: Plant response rating, Ragweed

[
  {
    "smiles.repr": "CCCC(=O)Oc1cnn(C)c(=O)c1-n1nc(-c2ccc(Cl)cc2)cc1C",
    "measurement": 0
  },
  {
    "smiles.repr": "Cn1ncc(O)c(-n2nc(-c3ccc(Cl)cc3)cc2C2CC2)c1=O",
    "measurement": 0
  },
  {
    "smiles.repr": "COc1nn(C)c(=O)c(-n2nc(-c3ccc(Br)cc3)cc2C)c1O",
    "measurement": 65
  },
  {
    "smiles.repr": "CCc1cc(-c2ccc(Br)cc2)nn1-c1c(O)cnn(CC(F)(F)F)c1=O",
    "measurement": 0
  }
]
